Test: Excitation and fluorescence wavelength by FL4500 fluorescence spectrophotometer
Conditions: 5 μM chloroform solution (Examples 30 to 34)
MEASURED_PROPERTY: Excitation wavelength λex
// return just the number, without any unit appended

CCCCn1c(=O)cc2c3c(c(NC4CCCCC4)ccc31)C(=O)c1ccccc1-2: 548
CCCCn1c(=O)cc2c3c(c(NCCC4=CCCCC4)ccc31)C(=O)c1ccccc1-2: 544
CCCCC(CC)CNc1ccc2c3c(cc(=O)n2CCCC)-c2ccccc2C(=O)c13 (centres unmarked): 547

The recorded Excitation wavelength λex for CCCCOCCCNc1ccc2c3c(cc(=O)n2CCCC)-c2ccccc2C(=O)c13 is 544

The recorded Excitation wavelength λex for O=C1c2ccccc2-c2cc(=O)n(C3CCCCC3)c3ccc(NC4CCCCC4)c1c23 is 547

All values here come from patent US20130280169A1.
